B1: EEHEE_rd4_0363 (parent)
chain: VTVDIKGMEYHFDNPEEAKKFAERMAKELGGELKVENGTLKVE

# Variants of: B1
# protocol.details: folding stability dG (cDNA display proteolysis); higher = more stable
# condition.label: PBS, room temperature
experimental.readout: folding stability dG (kcal/mol)

{"sequence.variant": "D4T", "experimental.readout": "folding stability dG", "readout.number": 2.85}
{"sequence.variant": "E23K", "experimental.readout": "folding stability dG", "readout.number": 1.34}
{"sequence.variant": "A26M", "experimental.readout": "folding stability dG", "readout.number": 1.55}
{"sequence.variant": "E17N", "experimental.readout": "folding stability dG", "readout.number": 1.11}
{"sequence.variant": "G31I", "experimental.readout": "folding stability dG", "readout.number": 1.88}
{"sequence.variant": "M25Q", "experimental.readout": "folding stability dG", "readout.number": 1.05}
{"sequence.variant": "D4R", "experimental.readout": "folding stability dG", "readout.number": 2.75}
{"sequence.variant": "M25N", "experimental.readout": "folding stability dG", "readout.number": 0.581}
{"sequence.variant": "E16A", "experimental.readout": "folding stability dG", "readout.number": 1.78}
{"sequence.variant": "L40F", "experimental.readout": "folding stability dG", "readout.number": 1.94}
{"sequence.variant": "K34W", "experimental.readout": "folding stability dG", "readout.number": 1.82}
{"sequence.variant": "V35T", "experimental.readout": "folding stability dG", "readout.number": 1.72}
{"sequence.variant": "E23R", "experimental.readout": "folding stability dG", "readout.number": 1.16}
{"sequence.variant": "G38D", "experimental.readout": "folding stability dG", "readout.number": 1.3}
{"sequence.variant": "L33H", "experimental.readout": "folding stability dG", "readout.number": 0.949}
{"sequence.variant": "Y10G", "experimental.readout": "folding stability dG", "readout.number": -0.912}
{"sequence.variant": "E43D", "experimental.readout": "folding stability dG", "readout.number": 1.91}
{"sequence.variant": "E9Q", "experimental.readout": "folding stability dG", "readout.number": 2.69}
{"sequence.variant": "E28I", "experimental.readout": "folding stability dG", "readout.number": 2.18}
{"sequence.variant": "I5R", "experimental.readout": "folding stability dG", "readout.number": 0.036}
{"sequence.variant": "Y10T", "experimental.readout": "folding stability dG", "readout.number": 0.289}
{"sequence.variant": "K6G", "experimental.readout": "folding stability dG", "readout.number": 2.68}
{"sequence.variant": "N37T", "experimental.readout": "folding stability dG", "readout.number": 1.18}
{"sequence.variant": "K20A", "experimental.readout": "folding stability dG", "readout.number": 2.42}
{"sequence.variant": "V3L", "experimental.readout": "folding stability dG", "readout.number": 1.04}
{"sequence.variant": "N37R", "experimental.readout": "folding stability dG", "readout.number": 1.14}
{"sequence.variant": "T39I", "experimental.readout": "folding stability dG", "readout.number": 2.81}
{"sequence.variant": "V3M", "experimental.readout": "folding stability dG", "readout.number": 0.639}
{"sequence.variant": "D4E", "experimental.readout": "folding stability dG", "readout.number": 2.56}
{"sequence.variant": "G31Y", "experimental.readout": "folding stability dG", "readout.number": 2.12}
{"sequence.variant": "E32W", "experimental.readout": "folding stability dG", "readout.number": 2.97}
{"sequence.variant": "N37A", "experimental.readout": "folding stability dG", "readout.number": 1.4}
{"sequence.variant": "D4P", "experimental.readout": "folding stability dG", "readout.number": 0.415}
{"sequence.variant": "K20C", "experimental.readout": "folding stability dG", "readout.number": 2.28}
{"sequence.variant": "E43Y", "experimental.readout": "folding stability dG", "readout.number": 2.91}
{"sequence.variant": "E9R", "experimental.readout": "folding stability dG", "readout.number": 2.9}
{"sequence.variant": "F12K", "experimental.readout": "folding stability dG", "readout.number": -0.237}
{"sequence.variant": "F12V", "experimental.readout": "folding stability dG", "readout.number": -0.424}
{"sequence.variant": "L33G", "experimental.readout": "folding stability dG", "readout.number": 0.82}
{"sequence.variant": "N37C", "experimental.readout": "folding stability dG", "readout.number": 2.07}
{"sequence.variant": "F12G", "experimental.readout": "folding stability dG", "readout.number": -0.303}
{"sequence.variant": "M25L", "experimental.readout": "folding stability dG", "readout.number": 1.45}
{"sequence.variant": "V3T", "experimental.readout": "folding stability dG", "readout.number": 0.19}
{"sequence.variant": "R24I", "experimental.readout": "folding stability dG", "readout.number": 1.5}
{"sequence.variant": "K34Y", "experimental.readout": "folding stability dG", "readout.number": 1.98}
{"sequence.variant": "K6V", "experimental.readout": "folding stability dG", "readout.number": 1.81}
{"sequence.variant": "Y10W", "experimental.readout": "folding stability dG", "readout.number": 1.56}
{"sequence.variant": "A18Q", "experimental.readout": "folding stability dG", "readout.number": -0.376}
{"sequence.variant": "E17I", "experimental.readout": "folding stability dG", "readout.number": 1.16}
{"sequence.variant": "N14M", "experimental.readout": "folding stability dG", "readout.number": 0.77}
{"sequence.variant": "P15M", "experimental.readout": "folding stability dG", "readout.number": 2.86}
{"sequence.variant": "G7W", "experimental.readout": "folding stability dG", "readout.number": 0.811}
{"sequence.variant": "A18C", "experimental.readout": "folding stability dG", "readout.number": 1.03}
{"sequence.variant": "K27I", "experimental.readout": "folding stability dG", "readout.number": 2.14}
{"sequence.variant": "E36L", "experimental.readout": "folding stability dG", "readout.number": 2.02}
{"sequence.variant": "L33W", "experimental.readout": "folding stability dG", "readout.number": 1.78}
{"sequence.variant": "R24M", "experimental.readout": "folding stability dG", "readout.number": 2.11}
{"sequence.variant": "K6T", "experimental.readout": "folding stability dG", "readout.number": 1.5}
{"sequence.variant": "K41R", "experimental.readout": "folding stability dG", "readout.number": 2.17}
{"sequence.variant": "E23M", "experimental.readout": "folding stability dG", "readout.number": 1.9}
{"sequence.variant": "G30A", "experimental.readout": "folding stability dG", "readout.number": 1.43}
{"sequence.variant": "K34M", "experimental.readout": "folding stability dG", "readout.number": 1.66}
{"sequence.variant": "K6S", "experimental.readout": "folding stability dG", "readout.number": 2.31}
{"sequence.variant": "E32D", "experimental.readout": "folding stability dG", "readout.number": 1.67}
{"sequence.variant": "K19A", "experimental.readout": "folding stability dG", "readout.number": 1.65}
{"sequence.variant": "K27G", "experimental.readout": "folding stability dG", "readout.number": 1.35}
{"sequence.variant": "G30M", "experimental.readout": "folding stability dG", "readout.number": 1.55}
{"sequence.variant": "H11T", "experimental.readout": "folding stability dG", "readout.number": 1.77}
{"sequence.variant": "K41F", "experimental.readout": "folding stability dG", "readout.number": 2}
{"sequence.variant": "D4Q", "experimental.readout": "folding stability dG", "readout.number": 2.75}
{"sequence.variant": "G7M", "experimental.readout": "folding stability dG", "readout.number": 0.304}
{"sequence.variant": "T39L", "experimental.readout": "folding stability dG", "readout.number": 2.13}
{"sequence.variant": "A18G", "experimental.readout": "folding stability dG", "readout.number": 1.46}
{"sequence.variant": "M25C", "experimental.readout": "folding stability dG", "readout.number": 2.19}
{"sequence.variant": "G38I", "experimental.readout": "folding stability dG", "readout.number": 0.967}
{"sequence.variant": "R24V", "experimental.readout": "folding stability dG", "readout.number": 1.35}
{"sequence.variant": "E28N", "experimental.readout": "folding stability dG", "readout.number": 1.28}
{"sequence.variant": "A26S", "experimental.readout": "folding stability dG", "readout.number": 1.3}
{"sequence.variant": "P15N", "experimental.readout": "folding stability dG", "readout.number": 1.41}
{"sequence.variant": "K20I", "experimental.readout": "folding stability dG", "readout.number": 2.08}
{"sequence.variant": "T39E", "experimental.readout": "folding stability dG", "readout.number": 1.2}
{"sequence.variant": "K6H", "experimental.readout": "folding stability dG", "readout.number": 2.74}
{"sequence.variant": "V1F", "experimental.readout": "folding stability dG", "readout.number": 2.41}
{"sequence.variant": "E43W", "experimental.readout": "folding stability dG", "readout.number": 2.64}
{"sequence.variant": "G31N", "experimental.readout": "folding stability dG", "readout.number": 0.953}
{"sequence.variant": "V35S", "experimental.readout": "folding stability dG", "readout.number": 1.61}
{"sequence.variant": "E9P", "experimental.readout": "folding stability dG", "readout.number": 1.47}
{"sequence.variant": "K34D", "experimental.readout": "folding stability dG", "readout.number": 1.01}
{"sequence.variant": "A22W", "experimental.readout": "folding stability dG", "readout.number": 1.53}
{"sequence.variant": "L29G", "experimental.readout": "folding stability dG", "readout.number": 0.895}
{"sequence.variant": "E16T", "experimental.readout": "folding stability dG", "readout.number": 1.7}
